# Protocol: Absorption and emission spectra of dyes in different solvents
# Assay type: physicochemical
# Cond: solvent THF
λabs1 values, listed per item
Observation Type: λabs1 (nm)

{"Input Smiles": "CCN1/C(=C/C=C/C(N)=C/C2=[N+](CC)c3ccccc3C2(C)C)C(C)(C)c2ccccc21", "Observation Type": "λabs1", "Numeric Result": 526}
{"Input Smiles": "CCN1/C(=C/C=C/C(=C/C2=[N+](CC)c3ccccc3C2(C)C)N(CCO)CCO)C(C)(C)c2ccccc21", "Observation Type": "λabs1", "Numeric Result": 517}
{"Input Smiles": "CCN(CC)C(=C\\C1=[N+](CC)c2ccccc2C1(C)C)/C=C/C=C1/N(CC)c2ccccc2C1(C)C", "Observation Type": "λabs1", "Numeric Result": 517}
{"Input Smiles": "CCN1/C(=C/C=C/C(=C/C2=[N+](CC)c3ccccc3C2(C)C)N(Cc2ccccc2)Cc2ccccc2)C(C)(C)c2ccccc21", "Observation Type": "λabs1", "Numeric Result": 523}
{"Input Smiles": "CCN1/C(=C/C=C/C(=C/C2=[N+](CC)c3ccccc3C2(C)C)NCc2ccccc2)C(C)(C)c2ccccc21", "Observation Type": "λabs1", "Numeric Result": 510}
{"Input Smiles": "CCN1/C(=C/C=C/C(=C/C2=[N+](CC)c3ccccc3C2(C)C)Nc2ccccc2)C(C)(C)c2ccccc21", "Observation Type": "λabs1", "Numeric Result": 556}
{"Input Smiles": "CCN1/C(=C/C=C/C(=C/C2=[N+](CC)c3ccccc3C2(C)C)NCCO)C(C)(C)c2ccccc21", "Observation Type": "λabs1", "Numeric Result": 503}

====

# Protocol: Absorption and emission spectra of dyes in different solvents
# Format: physicochemical
# Cond: solvent THF
# Excerpt: In the present invention, compounds IIa to IIg were synthesized based on compound II, and their spectral properties were investigated. […]

{"Input Smiles": "CCN1/C(=C/C=C/C(N)=C/C2=[N+](CC)c3ccccc3C2(C)C)C(C)(C)c2ccccc21", "Scale Unit": "nm", "λem": 590}
{"Input Smiles": "CCN1/C(=C/C=C/C(=C/C2=[N+](CC)c3ccccc3C2(C)C)NCc2ccccc2)C(C)(C)c2ccccc21", "Scale Unit": "nm", "λem": 596}
{"Input Smiles": "CCN1/C(=C/C=C/C(=C/C2=[N+](CC)c3ccccc3C2(C)C)N(CCO)CCO)C(C)(C)c2ccccc21", "Scale Unit": "nm", "λem": 605}
{"Input Smiles": "CCN1/C(=C/C=C/C(=C/C2=[N+](CC)c3ccccc3C2(C)C)N(Cc2ccccc2)Cc2ccccc2)C(C)(C)c2ccccc21", "Scale Unit": "nm", "λem": 609}
{"Input Smiles": "CCN1/C(=C/C=C/C(=C/C2=[N+](CC)c3ccccc3C2(C)C)NCCO)C(C)(C)c2ccccc21", "Scale Unit": "nm", "λem": 585}
{"Input Smiles": "CCN(CC)C(=C\\C1=[N+](CC)c2ccccc2C1(C)C)/C=C/C=C1/N(CC)c2ccccc2C1(C)C", "Scale Unit": "nm", "λem": 604}
{"Input Smiles": "CCN1/C(=C/C=C/C(=C/C2=[N+](CC)c3ccccc3C2(C)C)Nc2ccccc2)C(C)(C)c2ccccc21", "Scale Unit": "nm", "λem": 639}

====

# Protocol: Absorption and emission spectra of dyes in different solvents
# Format: physicochemical
# Parameters: key: Stokes shift in nm
# Cond: Stokes shift to absorption peak 2; solvent Methanol
Observation Type: Δλ2

{"Input Smiles": "CCN(CC)C(=C\\C1=[N+](CC)c2ccccc2C1(C)C)/C=C/C=C1/N(CC)c2ccccc2C1(C)C", "Numeric Result": 158}
{"Input Smiles": "CCN1/C(=C/C=C/C(N)=C/C2=[N+](CC)c3ccccc3C2(C)C)C(C)(C)c2ccccc21", "Numeric Result": 188}
{"Input Smiles": "CCN1/C(=C/C=C/C(=C/C2=[N+](CC)c3ccccc3C2(C)C)Nc2ccccc2)C(C)(C)c2ccccc21", "Numeric Result": 208}

====

ε2 (molar extinction coefficient) values, listed per item
# Protocol: Absorption and emission spectra of dyes in different solvents
# Assay type: physicochemical
# Parameters: scale not given here
# Cond: solvent THF

{"Input Smiles": "CCN1/C(=C/C=C/C(=C/C2=[N+](CC)c3ccccc3C2(C)C)Nc2ccccc2)C(C)(C)c2ccccc21", "ε2 (molar extinction coefficient)": "2.8 cm^−1M"}
{"Input Smiles": "CCN1/C(=C/C=C/C(=C/C2=[N+](CC)c3ccccc3C2(C)C)NCc2ccccc2)C(C)(C)c2ccccc21", "ε2 (molar extinction coefficient)": "2.2 cm^−1M"}
{"Input Smiles": "CCN(CC)C(=C\\C1=[N+](CC)c2ccccc2C1(C)C)/C=C/C=C1/N(CC)c2ccccc2C1(C)C", "ε2 (molar extinction coefficient)": "2.1 cm^−1M"}
{"Input Smiles": "CCN1/C(=C/C=C/C(=C/C2=[N+](CC)c3ccccc3C2(C)C)N(Cc2ccccc2)Cc2ccccc2)C(C)(C)c2ccccc21", "ε2 (molar extinction coefficient)": "2.0 cm^−1M"}

====

# Protocol: Absorption and emission spectra of dyes in different solvents
# Assay type: physicochemical
# Design: scale not given here
# Cond: solvent DCM

{"Input Smiles": "CCN1/C(=C/C=C/C(=C/C2=[N+](CC)c3ccccc3C2(C)C)N(CCO)CCO)C(C)(C)c2ccccc21", "ε2 (molar extinction coefficient) [cm^−1M]": 2.1}
{"Input Smiles": "CCN1/C(=C/C=C/C(=C/C2=[N+](CC)c3ccccc3C2(C)C)N(Cc2ccccc2)Cc2ccccc2)C(C)(C)c2ccccc21", "ε2 (molar extinction coefficient) [cm^−1M]": 2.1}
{"Input Smiles": "CCN1/C(=C/C=C/C(=C/C2=[N+](CC)c3ccccc3C2(C)C)NCCO)C(C)(C)c2ccccc21", "ε2 (molar extinction coefficient) [cm^−1M]": 1.7}
{"Input Smiles": "CCN1/C(=C/C=C/C(N)=C/C2=[N+](CC)c3ccccc3C2(C)C)C(C)(C)c2ccccc21", "ε2 (molar extinction coefficient) [cm^−1M]": 1.6}
{"Input Smiles": "CCN1/C(=C/C=C/C(=C/C2=[N+](CC)c3ccccc3C2(C)C)Nc2ccccc2)C(C)(C)c2ccccc21", "ε2 (molar extinction coefficient) [cm^−1M]": 2.1}
{"Input Smiles": "CCN(CC)C(=C\\C1=[N+](CC)c2ccccc2C1(C)C)/C=C/C=C1/N(CC)c2ccccc2C1(C)C", "ε2 (molar extinction coefficient) [cm^−1M]": 2.9}
{"Input Smiles": "CCN1/C(=C/C=C/C(=C/C2=[N+](CC)c3ccccc3C2(C)C)NCc2ccccc2)C(C)(C)c2ccccc21", "ε2 (molar extinction coefficient) [cm^−1M]": 2.1}

====

# Protocol: Absorption and emission spectra of dyes in different solvents
# Type: physicochemical
# Parameters: scale not given here
# Cond: solvent DMSO
Could you mark each record yes (1) if its ε1 (molar extinction coefficient) falls strictly under 3 cm^−1M, and no (0) if it equals or exceeds it?

{"Input Smiles": "CCN1/C(=C/C=C/C(=C/C2=[N+](CC)c3ccccc3C2(C)C)NCc2ccccc2)C(C)(C)c2ccccc21", "Category Label": "yes (1)"}
{"Input Smiles": "CCN1/C(=C/C=C/C(=C/C2=[N+](CC)c3ccccc3C2(C)C)Nc2ccccc2)C(C)(C)c2ccccc21", "Category Label": "yes (1)"}
{"Input Smiles": "CCN(CC)C(=C\\C1=[N+](CC)c2ccccc2C1(C)C)/C=C/C=C1/N(CC)c2ccccc2C1(C)C", "Category Label": "no (0)"}
{"Input Smiles": "CCN1/C(=C/C=C/C(=C/C2=[N+](CC)c3ccccc3C2(C)C)N(CCO)CCO)C(C)(C)c2ccccc21", "Category Label": "yes (1)"}
{"Input Smiles": "CCN1/C(=C/C=C/C(=C/C2=[N+](CC)c3ccccc3C2(C)C)N(Cc2ccccc2)Cc2ccccc2)C(C)(C)c2ccccc21", "Category Label": "no (0)"}
{"Input Smiles": "CCN1/C(=C/C=C/C(N)=C/C2=[N+](CC)c3ccccc3C2(C)C)C(C)(C)c2ccccc21", "Category Label": "no (0)"}

====

# Protocol: Absorption and emission spectra of dyes in different solvents
# Format: physicochemical
# Cond: solvent DCM
Observation Type: λem (nm)

{"Input Smiles": "CCN1/C(=C/C=C/C(=C/C2=[N+](CC)c3ccccc3C2(C)C)NCc2ccccc2)C(C)(C)c2ccccc21", "Observation Type": "λem", "Numeric Result": 603}
{"Input Smiles": "CCN(CC)C(=C\\C1=[N+](CC)c2ccccc2C1(C)C)/C=C/C=C1/N(CC)c2ccccc2C1(C)C", "Observation Type": "λem", "Numeric Result": 611}
{"Input Smiles": "CCN1/C(=C/C=C/C(=C/C2=[N+](CC)c3ccccc3C2(C)C)Nc2ccccc2)C(C)(C)c2ccccc21", "Observation Type": "λem", "Numeric Result": 645}
{"Input Smiles": "CCN1/C(=C/C=C/C(=C/C2=[N+](CC)c3ccccc3C2(C)C)N(CCO)CCO)C(C)(C)c2ccccc21", "Observation Type": "λem", "Numeric Result": 622}
{"Input Smiles": "CCN1/C(=C/C=C/C(=C/C2=[N+](CC)c3ccccc3C2(C)C)N(Cc2ccccc2)Cc2ccccc2)C(C)(C)c2ccccc21", "Observation Type": "λem", "Numeric Result": 615}
{"Input Smiles": "CCN1/C(=C/C=C/C(=C/C2=[N+](CC)c3ccccc3C2(C)C)NCCO)C(C)(C)c2ccccc21", "Observation Type": "λem", "Numeric Result": 596}
{"Input Smiles": "CCN1/C(=C/C=C/C(N)=C/C2=[N+](CC)c3ccccc3C2(C)C)C(C)(C)c2ccccc21", "Observation Type": "λem", "Numeric Result": 609}
